- Study Target: PRMT5-MEP50 (Homo sapiens, UniProt O14744)
- Sequence (O14744 whole entry): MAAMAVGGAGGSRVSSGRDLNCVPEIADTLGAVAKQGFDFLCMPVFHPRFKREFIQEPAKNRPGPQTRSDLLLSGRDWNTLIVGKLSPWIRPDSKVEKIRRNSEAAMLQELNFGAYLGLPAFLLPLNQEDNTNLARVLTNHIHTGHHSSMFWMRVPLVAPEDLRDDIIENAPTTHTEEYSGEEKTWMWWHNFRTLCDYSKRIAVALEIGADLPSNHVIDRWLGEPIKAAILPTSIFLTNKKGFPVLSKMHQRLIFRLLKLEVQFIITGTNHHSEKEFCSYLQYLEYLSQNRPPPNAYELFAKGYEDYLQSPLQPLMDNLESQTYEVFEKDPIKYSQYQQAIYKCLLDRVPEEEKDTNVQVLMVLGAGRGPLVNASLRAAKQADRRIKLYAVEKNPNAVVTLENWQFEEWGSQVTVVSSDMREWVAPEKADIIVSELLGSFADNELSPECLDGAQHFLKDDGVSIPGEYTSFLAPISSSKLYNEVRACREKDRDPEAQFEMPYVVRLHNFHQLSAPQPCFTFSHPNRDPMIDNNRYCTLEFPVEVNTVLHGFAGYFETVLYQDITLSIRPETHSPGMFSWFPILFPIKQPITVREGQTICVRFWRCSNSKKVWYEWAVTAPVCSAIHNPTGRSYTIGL
- Sequence (Q9BQA1 whole entry partner): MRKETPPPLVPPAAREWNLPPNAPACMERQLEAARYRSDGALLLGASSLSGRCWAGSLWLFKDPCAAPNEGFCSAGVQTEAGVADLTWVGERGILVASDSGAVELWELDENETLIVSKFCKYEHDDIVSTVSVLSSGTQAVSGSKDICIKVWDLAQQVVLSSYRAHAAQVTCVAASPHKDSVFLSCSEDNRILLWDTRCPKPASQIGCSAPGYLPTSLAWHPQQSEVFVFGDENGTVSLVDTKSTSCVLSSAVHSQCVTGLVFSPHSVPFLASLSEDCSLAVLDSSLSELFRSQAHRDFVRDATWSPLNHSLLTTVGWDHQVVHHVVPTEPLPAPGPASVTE
- Assay Overview: PRMT5 Assay (PRMT5 biochemical assay)
- Test Parameters: PRMT5 biochemical assay; read-out: PRMT5 IC50
- Method: Assays were performed in a 25 μl-volume in 384-well V-bottom polypropylene microplates (Greiner Bio-One, cat. No. 781280) at ambient temperature. Optimized 1× assay buffer was 20 mM Tris-HCl pH 8.0, 1 mM DTT, 0.01% Tween, 0.01%. […] Following two washing cycles with 0.1% Tween-20, the plates were sealed and read on a TopCount (PerkinElmer, Waltham, Mass.) plate-based scintillation counter. […]
pIC50: −log10 of the molar value.
Overview of reported pIC50 across a group of compounds:

Chemical Smiles	pIC50
CNc1ccc2ccc(OC[C@H]3O[C@@H](n4cc(Br)c5c(N)ncnc54)[C@@H](F)[C@@H]3O)cc2n1	7.00 to 8.00
Nc1ccc2ccc(CC[C@H]3C[C@@H](n4ccc5c(N)ncnc54)[C@H](O)[C@@H]3O)cc2n1	> 8.00
Nc1ncnc2c1ccn2[C@@H]1C[C@H](CCc2ccc3[nH]ncc3c2)[C@@H](O)[C@H]1O	6.00 to 7.00
Nc1ccc2ccc(CC[C@H]3C[C@@H](n4cc([C@H]5CCOC5)c5c(N)ncnc54)[C@H](O)[C@@H]3O)cc2n1	> 8.00
Cn1ccnc1-c1ccc2ccc(OC[C@H]3O[C@@H](n4cc(Br)c5c(N)ncnc54)[C@@H](F)[C@@H]3O)cc2n1	6.00 to 7.00
Nc1ncnc2c1ccn2[C@@H]1O[C@H](COc2ccc3ccc(N4CC(N)C4)nc3c2)[C@@H](O)[C@@H]1F	< 6.00
CNc1ccc2ccc(OC[C@H]3O[C@@H](n4cc([C@@H]5CCCO5)c5c(N)ncnc54)[C@@H](F)[C@@H]3O)cc2n1	< 6.00
CNc1ccc2ccc(OC[C@H]3O[C@@H](n4cc(Br)c5c(N)nccc54)[C@@H](F)[C@@H]3O)cc2n1	6.00 to 7.00
CNc1ccc2ccc(OC[C@H]3O[C@@H](n4cc(F)c5c(N)ncnc54)[C@@H](F)[C@@H]3O)cc2n1	7.00 to 8.00
Nc1ncnc2c1ccn2[C@@H]1C[C@H](CCc2cccc(NC(=O)C3CC3)c2)[C@@H](O)[C@H]1O	6.00 to 7.00
Nc1ncnc2c1ccn2[C@@H]1C[C@H](CCc2ccc3[nH]ccc3c2)[C@@H](O)[C@H]1O	6.00 to 7.00
CNc1ccc2ccc(OC[C@H]3O[C@@H](n4cc(CC5CC5)c5c(N)ncnc54)[C@H](O)[C@@H]3O)cc2n1	7.00 to 8.00
CNc1ncnc2c1ccn2[C@@H]1C[C@H](CCc2ccc3ccc(N)nc3c2)[C@@H](O)[C@H]1O	> 8.00
Nc1ccc2ccc(OC[C@H]3C[C@@H](n4ccc5c(NCCc6ccccc6)ncnc54)[C@H](O)[C@@H]3O)cc2n1	> 8.00
Nc1ncnc2c1ccn2[C@@H]1C[C@H](CCc2cnc3cccnc3c2)[C@@H](O)[C@H]1O	> 8.00
